The entries below pair compounds with pKi values for Orexin/Hypocretin receptor type 1 (Homo sapiens, UniProt O43613), as found in several publications.
Friendly reminder that pKi comes from taking -log10 of the concentration in mol/L.

Q. API: value(readout= pKi, system= Orexin/Hypocretin receptor type 1 (Homo sapiens, UniProt O43613), query= Cc1cnc(C(=O)N2CCC[C@@H](Oc3ncc(C(F)(F)F)cn3)[C@@H]2C)c(-n2nccn2)c1 )
A. 6.35

Q. Item C[C@@H]1[C@H]2C[C@@H](Oc3ccc(C(F)(F)F)cn3)[C@H](C2)N1C(=O)c1ccccc1-n1ncc(CCCF)n1 with Orexin/Hypocretin receptor type 1 (Homo sapiens, UniProt O43613) - pKi?
A. 7.70

Q. Notebook entry, Orexin/Hypocretin receptor type 1 (Homo sapiens, UniProt O43613) assay: pKi of C[C@@H]1[C@H]2C[C@@H](Oc3ccc(C(F)(F)F)cn3)[C@H](C2)N1C(=O)c1ccccc1-c1ccc(F)nc1 = ?
A. 7.77

Q. Look up pKi with Orexin/Hypocretin receptor type 1 (Homo sapiens, UniProt O43613) for this compound: C[C@@H]1[C@H]2C[C@@H](Oc3cnc4cc(F)ccc4n3)[C@H](C2)N1C(=O)c1cccc(F)c1-n1nccn1 (relative stereo)
A. 8.22

Q. Lab note: need pKi for Cc1ccc(-n2nccn2)c(C(=O)N2C(C)C3CC(Oc4cnc(C(F)(F)F)cn4)C2C3)n1 (racemic) on Orexin/Hypocretin receptor type 1 (Homo sapiens, UniProt O43613), anyone have it?
A. 7.35

Q. Record Cc1ccc(-c2ncccn2)c(C(=O)N2CCC[C@@H](Nc3cnc(C(F)(F)F)cn3)[C@@H]2C)n1 : what is its pKi with Orexin/Hypocretin receptor type 1 (Homo sapiens, UniProt O43613)?
A. 7.55

Q. Request: pKi, test system Orexin/Hypocretin receptor type 1 (Homo sapiens, UniProt O43613), entry C[C@@H]1[C@H]2C[C@@H](Oc3ccc(C(F)(F)F)nc3)[C@H](C2)N1C(=O)c1cccc(F)c1-n1nccn1 (relative stereo)
A. 6.55

Q. Give Orexin/Hypocretin receptor type 1 (Homo sapiens, UniProt O43613) pKi for Cc1cnc(C(=O)N2[C@H](C)[C@@H]3CC[C@H]2[C@H](Oc2ccc(C(F)(F)F)cn2)C3)c(-n2nccn2)c1
A. 7.96

Q. Enter reported pKi observed with Orexin/Hypocretin receptor type 1 (Homo sapiens, UniProt O43613) for C[C@H]1[C@H](Nc2ncc(C(F)(F)F)cn2)CCCN1C(=O)c1ccccc1-n1nccn1 (racemic)
A. 7.54

Q. Item: Cc1cnc(C(=O)N2CCC[C@@H](Nc3ccc(C(F)(F)F)cn3)[C@@H]2C)c(-n2nccn2)c1 Test system: Orexin/Hypocretin receptor type 1 (Homo sapiens, UniProt O43613) Read-out: pKi Value: ?
A. 7.85

Q. Form: Entry = CC1C2CC(Oc3ccc(C(F)(F)F)cn3)C(C2)N1C(=O)c1cccc(F)c1-c1ncco1 (racemic) | System = Orexin/Hypocretin receptor type 1 (Homo sapiens, UniProt O43613) | pKi = ____
A. 8.10

Q. Request - read-out pKi | tested on Orexin/Hypocretin receptor type 1 (Homo sapiens, UniProt O43613) | compound C[C@H]1[C@H](Nc2cnc(C(F)(F)F)cn2)CCCN1C(=O)c1ccccc1-n1nccn1 (racemic)
A. 7.60

Q. Give the reported pKi for Cc1ccc(-n2nccn2)c(C(=O)N2[C@H](C)[C@@H]3CC[C@H]2[C@H](Oc2ccc(C(F)(F)F)cn2)C3)n1 (system: Orexin/Hypocretin receptor type 1 (Homo sapiens, UniProt O43613)).
A. 8.00

Q. Form: Entry = CC1C2CC(Oc3ccc(C(F)(F)F)cn3)C(C2)N1C(=O)c1ncccc1-c1ncccn1 (racemic) | System = Orexin/Hypocretin receptor type 1 (Homo sapiens, UniProt O43613) | pKi = ____
A. 7.89

Q. Request: pKi, test system Orexin/Hypocretin receptor type 1 (Homo sapiens, UniProt O43613), entry COc1ccc(C(=O)N2CCC[C@@H](Nc3ccc(C(F)(F)F)cn3)[C@@H]2C)c(-n2nccn2)c1
A. 7.49

Q. Notebook entry, Orexin/Hypocretin receptor type 1 (Homo sapiens, UniProt O43613) assay: pKi of Cc1cc(C)nc(N[C@@H]2CCCN(C(=O)c3cc(F)ccc3-n3nccn3)[C@H]2C)n1 (racemic) = ?
A. 6.25

Q. Query for Orexin/Hypocretin receptor type 1 (Homo sapiens, UniProt O43613): what pKi does the record show for [2H]C1([2H])[C@H]2C[C@@H]([C@@H]1Oc1ccc(C(F)(F)F)cn1)N(C(=O)c1cccc(F)c1-n1nccn1)[C@@H]2C ?
A. 8.30

Q. Form field - read-out: pKi; system: Orexin/Hypocretin receptor type 1 (Homo sapiens, UniProt O43613); submitted item: Cc1ccc(C(=O)N2CCC[C@@H](Nc3nccc(C(F)(F)F)n3)[C@@H]2C)c(-n2ccnn2)n1 (racemic)
A. 5.05

Q. Field: pKi (Orexin/Hypocretin receptor type 1 (Homo sapiens, UniProt O43613)). Entry: Cc1ccc(-n2nccn2)c(C(=O)N2CCC[C@@H](COc3ccccn3)[C@@H]2C)c1
A. 9.00

Q. Give Orexin/Hypocretin receptor type 1 (Homo sapiens, UniProt O43613) pKi for Cc1ccc(-n2nccn2)c(C(=O)N2CCC[C@@H](COc3ccnc4ccccc34)[C@@H]2C)c1 (stereo in doubt)
A. 9.22

Q. Report pKi for Cc1ccc(-n2nccn2)c(C(=O)N2[C@H](C)[C@H]3C[C@@H](Nc4ccc(C(F)(F)F)cn4)[C@@H]2C3)n1 (relative stereo) tested on Orexin/Hypocretin receptor type 1 (Homo sapiens, UniProt O43613).
A. 8.40

Q. Lab request: please report pKi under test system Orexin/Hypocretin receptor type 1 (Homo sapiens, UniProt O43613) for Cc1ccc(-n2nccn2)c(C(=O)N2[C@H](C)[C@H]3C[C@@H](Oc4cnc5cc(F)c(F)cc5n4)[C@@H]2C3)n1 (relative stereo)
A. 7.38

Q. Can you look up pKi on Orexin/Hypocretin receptor type 1 (Homo sapiens, UniProt O43613) for C[C@H]1[C@H](Nc2cnc(C(F)(F)F)cn2)CCCN1C(=O)c1cc(F)ccc1-n1nccn1 ?
A. 7.72

Q. Recorded pKi for Cc1ccc(C(=O)N2CCC[C@@H](Nc3cnc(C(F)(F)F)cn3)[C@@H]2C)c(-n2nccn2)c1 with Orexin/Hypocretin receptor type 1 (Homo sapiens, UniProt O43613), please?
A. 8.15

Q. API: value(readout= pKi, system= Orexin/Hypocretin receptor type 1 (Homo sapiens, UniProt O43613), query= Cc1ccc(C(=O)N2CCC[C@@H](Oc3ncc(C(F)(F)F)cn3)[C@@H]2C)c(-n2nccn2)c1 )
A. 7.60

Q. Given the entry Cc1ccc(-n2nccn2)c(C(=O)N2C[C@H](Cc3nc4ccccc4n3C)CC[C@H]2C)c1 , what pKi was observed with Orexin/Hypocretin receptor type 1 (Homo sapiens, UniProt O43613)?
A. 8.35

Q. # query: pKi | item Cc1ccc(-n2nccn2)c(C(=O)N2[C@H](C)[C@H]3C[C@@H](Oc4cnc5cc(F)ccc5n4)[C@@H]2C3)n1 (relative stereo) | system: Orexin/Hypocretin receptor type 1 (Homo sapiens, UniProt O43613)
A. 7.92
